- ASSAY COMMENT: in vivo
- PROTOCOL CONDITIONS: male, CD-1/C57BL/6, mouse
MEASUREMENT NAME: bioavailability (%)
I only need the number, in %, no unit after it.

Which bioavailability value is on record for CCc1ccccc1C(=O)Nc1cc2c(cc1F)NC(=O)CC2 ?
62.5

====

- ASSAY COMMENT: Pharmacokinetic profiling in mice
- PROTOCOL CONDITIONS: male, CD-1/C57BL/6, mouse, plasma, po, 10 mg/kg
MEASUREMENT NAME: half-life (h)
I only need the number, in h, no unit after it.

Which half-life value is on record for CCc1cnccc1C(=O)Nc1cc2c(cc1F)NC(=O)CC2 [Compound 1] ?
1.37

====

- SYSTEM: mALDH1a3 (Mus musculus)
- ASSAY COMMENT: Aldh1a3 enzyme inhibition assay, recombinant mALDH1a3
- PROTOCOL CONDITIONS: resorufin fluorescence, 20° C.
pIC50: −log10 of the molar value.
MEASUREMENT NAME: pIC50

Completed entries (count: 3):
What pIC50 appears in the records for this compound with mALDH1a3 (Mus musculus)? COC(=O)c1ccc2ncc(Nc3ccc4c(c3)CC(C)(C)C(=O)N4)nc2c1
< 5.30

What pIC50 appears in the records for this compound with mALDH1a3 (Mus musculus)? CCc1cnccc1/C=C/c1cc2c(cc1F)NC(=O)CC2
6.00 to 6.60

What pIC50 appears in the records for this compound with mALDH1a3 (Mus musculus)? Cc1ccc2nc(Nc3ccc4c(c3)CCC(=O)N4)ccc2c1
5.30 to 6.00

Others:
What pIC50 appears in the records for this compound with mALDH1a3 (Mus musculus)? Cc1ccc(C(=O)Nc2ccc3c(c2)CCC(=O)N3)c(C)c1
< 5.30

What pIC50 appears in the records for this compound with mALDH1a3 (Mus musculus)? CC1(C)Cc2cc(Nc3ccc4ccncc4n3)ccc2NC1=O
< 5.30

What pIC50 appears in the records for this compound with mALDH1a3 (Mus musculus)? N#Cc1ccc2ccc(Nc3ccc4c(c3)CCC(=O)N4)nc2c1
< 5.30

What pIC50 appears in the records for this compound with mALDH1a3 (Mus musculus)? Cc1cc(C(=O)Nc2ccc3c(c2)CCC(=O)N3)ccn1
< 5.30

What pIC50 appears in the records for this compound with mALDH1a3 (Mus musculus)? CC1(C)Cc2cc(Nc3ccc4ccccc4n3)ccc2NC1=O
5.30 to 6.00

What pIC50 appears in the records for this compound with mALDH1a3 (Mus musculus)? Cc1cccc2ncc(Nc3ccc4c(c3)CCC(=O)N4)cc12
5.30 to 6.00

What pIC50 appears in the records for this compound with mALDH1a3 (Mus musculus)? Cc1cc(C(=O)Nc2cc3c(cc2F)NC(=O)C(C)(C)C3)c(CC(C)C)cn1
< 5.30

What pIC50 appears in the records for this compound with mALDH1a3 (Mus musculus)? Cc1nc(Nc2ccc3c(c2)CC(C)(C)C(=O)N3)nc2ccccc12
6.00 to 6.60

What pIC50 appears in the records for this compound with mALDH1a3 (Mus musculus)? O=C1CCc2cc(Nc3nccc4ccccc34)ccc2N1
< 5.30

What pIC50 appears in the records for this compound with mALDH1a3 (Mus musculus)? CC1(C)Cc2cc(NN3CCC(c4ccccc4)C3=O)ccc2NC1=O (stereo not drawn)
< 5.30

What pIC50 appears in the records for this compound with mALDH1a3 (Mus musculus)? CCc1cnccc1C(=O)Nc1ccc2c(c1)C(F)(F)C(=O)N2
< 5.30

What pIC50 appears in the records for this compound with mALDH1a3 (Mus musculus)? N#Cc1ccc2nc(Nc3ccc4c(c3)CCC(=O)N4)ccc2c1
< 5.30

What pIC50 appears in the records for this compound with mALDH1a3 (Mus musculus)? CCc1cnccc1CNc1cc2c(cc1F)NC(=O)CC2
5.30 to 6.00

What pIC50 appears in the records for this compound with mALDH1a3 (Mus musculus)? CCc1cnc(C)cc1C(=O)Nc1cc2c(cc1F)NC(=O)CC2 [Compound 79]
6.00 to 6.60

What pIC50 appears in the records for this compound with mALDH1a3 (Mus musculus)? CC(C)c1cnccc1C(=O)Nc1cc2c(cc1F)NC(=O)CC2
5.30 to 6.00

What pIC50 appears in the records for this compound with mALDH1a3 (Mus musculus)? Cc1cnccc1C(=O)Nc1cc2c(cc1F)NC(=O)CC2
< 5.30

What pIC50 appears in the records for this compound with mALDH1a3 (Mus musculus)? O=C1CCc2cc(NCc3cc[nH]c3)c(F)cc2N1
< 5.30

What pIC50 appears in the records for this compound with mALDH1a3 (Mus musculus)? Cc1cnccc1/C=C/c1ccc2c(c1)CCC(=O)N2
5.30 to 6.00

What pIC50 appears in the records for this compound with mALDH1a3 (Mus musculus)? O=C1CCc2cc(Nc3ccc4ccccc4n3)ccc2N1
> 7.00

What pIC50 appears in the records for this compound with mALDH1a3 (Mus musculus)? CC1(C)Cc2cc(Nc3ccc4c(c3)NC(=O)CC4)ccc2NC1=O
< 5.30

====

Measured pIC50 by item
- SYSTEM: mALDH1a3 (Mus musculus, UniProt Q9JHW9)
- Construct: made in house; host or cells: E. coli BL21-DE3, pET-Aldh1a3
- Sequence (Q9JHW9 whole entry): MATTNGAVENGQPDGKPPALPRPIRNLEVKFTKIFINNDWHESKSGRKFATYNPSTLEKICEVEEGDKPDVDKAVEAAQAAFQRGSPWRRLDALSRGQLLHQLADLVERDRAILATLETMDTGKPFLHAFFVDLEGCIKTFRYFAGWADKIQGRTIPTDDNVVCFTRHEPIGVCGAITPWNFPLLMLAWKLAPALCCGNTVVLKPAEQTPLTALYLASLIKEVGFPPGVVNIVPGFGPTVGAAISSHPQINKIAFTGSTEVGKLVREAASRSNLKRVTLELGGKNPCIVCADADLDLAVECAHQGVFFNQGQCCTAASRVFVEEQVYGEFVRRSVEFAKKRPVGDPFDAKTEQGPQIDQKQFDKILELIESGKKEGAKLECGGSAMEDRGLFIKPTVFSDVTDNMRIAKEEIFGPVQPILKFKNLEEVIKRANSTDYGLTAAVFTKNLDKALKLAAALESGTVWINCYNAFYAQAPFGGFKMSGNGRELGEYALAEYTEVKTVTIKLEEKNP
- ASSAY COMMENT: Aldh1a3 enzyme inhibition assay, recombinant mALDH1a3
- Type: biochemical
- PROTOCOL CONDITIONS: resorufin fluorescence, 20° C.
pIC50: −log10 of the molar value.

Completed entries (count: 4):
Which pIC50 value is on record for CC1(C)Cc2cc(Nc3ccc4ccccc4n3)c(F)cc2NC1=O ?
6.00 to 6.60

Which pIC50 value is on record for CC(C)Cc1cnccc1C(=O)Nc1cc2c(cc1F)NC(=O)CC2 ?
6.60 to 7.00

Which pIC50 value is on record for CCc1cnccc1C(=O)Nc1cc2c(cc1C#N)NC(=O)CC2 ?
6.00 to 6.60

Which pIC50 value is on record for CCc1cnc(F)cc1C(=O)Nc1ccc2c(c1)CCC(=O)N2 ?
6.00 to 6.60

Others:
Which pIC50 value is on record for CCc1cnccc1C(=O)Nc1ccc2c(c1)NC(=O)CC2 ?
< 5.30

====

- SYSTEM: mALDH1a3 (Mus musculus)
- ASSAY COMMENT: Aldh1a3 enzyme inhibition assay, recombinant mALDH1a3
- PROTOCOL CONDITIONS: resorufin fluorescence, 20° C.
pIC50: −log10 of the molar value.
MEASUREMENT NAME: pIC50

Completed entries (count: 4):
Which pIC50 value is on record for CC1(C)Cc2cc(Nc3nc4ccccc4o3)ccc2NC1=O ?
6.00 to 6.60

Which pIC50 value is on record for CCc1cnccc1C(=O)Nc1ccc2c(c1F)CCC(=O)N2 ?
< 5.30

Which pIC50 value is on record for CCc1c[n+]([O-])ccc1C(=O)Nc1ccc2c(c1)CCC(=O)N2 ?
< 5.30

Which pIC50 value is on record for CCc1cnccc1C(=O)Nc1ccc2c(c1)CN(C)C(=O)N2 ?
< 5.30

Others:
Which pIC50 value is on record for CCc1cc(C#N)ccc1C(=O)Nc1cc2c(cc1F)NC(=O)C(C)(C)C2 ?
5.30 to 6.00

Which pIC50 value is on record for CCc1cnccc1C(=O)Nc1ccc2c(c1)C(C)(C)C(=O)N2 ?
< 5.30

Which pIC50 value is on record for O=S1(=O)CCc2cc(Nc3ccc4ccccc4n3)ccc2N1 ?
< 5.30

Which pIC50 value is on record for CC1(C)CC(=O)Nc2ccc(Nc3nccc4ccccc34)cc21 ?
< 5.30

Which pIC50 value is on record for O=C1CCc2cc(NC(=O)c3ccncc3)c(F)cc2N1 ?
< 5.30

Which pIC50 value is on record for CC1(C)Cc2cc(Nc3cc(Cl)c(Cl)cn3)ccc2NC1=O ?
< 5.30

Which pIC50 value is on record for CC1(C)Cc2cc(Nc3ccc4cnccc4c3)ccc2NC1=O ?
< 5.30

Which pIC50 value is on record for Cc1cccc2ccc(Nc3ccc4c(c3)CC(C)(C)C(=O)N4)nc12 ?
< 5.30

Which pIC50 value is on record for CC1(C)Cc2cc(Nc3ncc4ccccc4n3)ccc2NC1=O ?
6.00 to 6.60

Which pIC50 value is on record for CC1(C)Cc2cc(Nc3cnc4ccccc4n3)c(F)cc2NC1=O ?
> 7.00

Which pIC50 value is on record for CCc1cnccc1/C=C/c1ccc2c(c1)CC(C)(C)C(=O)N2 ?
5.30 to 6.00

Which pIC50 value is on record for CCc1cccnc1C(=O)Nc1cc2c(cc1Cl)NC(=O)CC2 ?
6.00 to 6.60

====

- ASSAY COMMENT: in vivo
- PROTOCOL CONDITIONS: male, CD-1/C57BL/6, mouse, iv, 1 mg/kg
MEASUREMENT NAME: half-life (h)
I only need the number, in h, no unit after it.

Which half-life value is on record for CCc1ccccc1C(=O)Nc1cc2c(cc1F)NC(=O)CC2 ?
1.22
